Origin of measurements: the supplement of paper PMC13380429

- Tested on: Vero E6 infected with SARS-CoV-2
- Run description: inhibition of SARS-CoV-2 cytopathic effect; higher = more antiviral protection, active = above 15
- Test parameters: 10000 nM; 48 h
Measured attribute: inhibition of SARS-CoV-2 cytopathic effect (%)
Field: numeric (%). Do not append units.

Example entries and their recorded answers appear below.
O=c1[nH]c(=O)c2ccccc2o1 : 4.32
c1ccc(NCc2ccc(CNc3ccccn3)cc2)nc1 : -0.68
CC(=O)NC1N=C(c2ccccc2)c2ccccc2NC1=O (stereo unspecified) : -0.69
CCCCCCOc1nsnc1C1=CCCN(C)C1 : -0.8

// inhibition of SARS-CoV-2 cytopathic effect value for Cc1c(-c2ccnn2C)cc(C(=O)NCc2ccc(S(C)(=O)=O)cn2)c(=O)n1-c1cccc(C(F)(F)F)c1 : -0.81

Record N#Cc1cc(-c2n[nH]c(-c3ccncc3)n2)ccn1 , field inhibition of SARS-CoV-2 cytopathic effect: 0.11

---

- Test system: Vero E6 infected with SARS-CoV-2
- Run description: inhibition of SARS-CoV-2 cytopathic effect; higher = more antiviral protection, active = above 15
- Test parameters: 1 nM; 48 h
Reported inhibition of SARS-CoV-2 cytopathic effect values are given for each entry in this list.
Respond numerically; units are % and should not be typed.

According to the records, this molecule CC(C)c1onc(-c2c(Cl)cccc2Cl)c1COc1ccc(/C=C/c2cccc(C(=O)O)c2)c(Cl)c1 displays inhibition of SARS-CoV-2 cytopathic effect of 0.86

Reported inhibition of SARS-CoV-2 cytopathic effect for CN[C@@H]1[C@@H](O[C@H]2O[C@H](CO)[C@@H](N)[C@H](O)[C@H]2O)O[C@H]2C[C@@H](N)[C@@H](O[C@H]3[C@H](O)[C@@H](O)[C@H](N)C[C@@H]3N)O[C@@H]2[C@@H]1O was -4.27

# molecule COc1cc2ncnc(Oc3cccc(NC(=O)Nc4cc(C(C)(C)C(F)(F)F)on4)c3)c2cc1OC ; its inhibition of SARS-CoV-2 cytopathic effect = -0.44

---

- Tested on: Vero E6 infected with SARS-CoV-2
- Run description: SARS-CoV-2 infection rate relative to infected DMSO; higher = more infection, active = 60 or less
- Test parameters: 24 h
Recorded SARS-CoV-2 infection rate, one value per entry.
Your answer is read as %, so omit the unit and give the number.

Some solved cases for reference:
CC(=O)NC[C@H]1CN(c2ccc(N3CCOCC3)c(F)c2)C(=O)O1 [linezolid] (10 µM) : 112
CC(C)(C)c1cc(C(C)(C)C)c(NC(=O)c2c[nH]c3ccccc3c2=O)cc1O [ivacaftor] (10 µM) : 93
C[N+](C)(C)CC(O)CC(=O)[O-] (stereo not given) [carnitine-(D/L)] (10 µM) : 117
CCc1c(O)cc(O)c(C(=O)c2ccc(OCCN3CCOCC3)c(OC)c2)c1CC(=O)N(CCOC)CCOC (10 µM) : 102

Given item Cc1ccc2c(N3CCN(CCc4cccc(N5CCNC5=O)c4)CC3)cccc2n1 (10 µM) , the value recorded as its SARS-CoV-2 infection rate is 84

---

- System: Vero E6 infected with SARS-CoV-2
- Run description: inhibition of SARS-CoV-2 cytopathic effect; higher = more antiviral protection, active = above 15
- Test parameters: 833.33 nM; 48 h
Each entry below carries its reported inhibition of SARS-CoV-2 cytopathic effect.

Some molecules with recorded inhibition of SARS-CoV-2 cytopathic effect:
COC(=O)c1ccc2c(c1)nc(NC(=O)c1ccccc1)n2CCCc1ccccc1 : -5.07% (inactive)
Cc1cccc(C)c1-n1c(=O)c2cnc(Nc3ccc(N4CCN(C)CC4)cc3)nc2n2c3ccccc3nc12 : 0.21% (inactive)
CC#C[C@]1(O)CC[C@H]2[C@@H]3CCC4=CC(=O)CCC4=C3[C@@H](c3ccc(N(C)C)cc3)C[C@@]21C : -4.55% (inactive)

// inhibition of SARS-CoV-2 cytopathic effect value for C[C@@H]1O[C@@H](O[C@H]2[C@H](Oc3cc(O)c4c(c3)O[C@H](c3ccc(O)cc3)CC4=O)O[C@H](CO)[C@@H](O)[C@@H]2O)[C@H](O)[C@H](O)[C@H]1O [Naringin (Naringoside)] : -1.1% (inactive)
